Test system: LG0703-F948-PDC complex spheroid viability
Experiment: Anticancer human tumor LG0703-F948-PDC patient-derived lung adenocarcinoma cell line growth inhibition [RAS]; active = viability on the fitted dose curve at most 10% of control; inactive = the rest
Test settings: second compound 1 µM; first compound 10 µM
API: response.call in TRUE (active), FALSE (inactive)

Ask: Which outcome was assigned to CC(=O)OC12COC1CC(O)C1(C)C(=O)C(O)C3=C(C)C(OC(=O)C(O)C(NC(=O)OC(C)(C)C)c4ccccc4)CC(O)(C(OC(=O)c4ccccc4)C21)C3(C)C (stereo not given) + C#Cc1c(F)ccc2cc(O)cc(-c3ncc4c(N5CC6CCC(C5)N6)nc(OCC56CCCN5CC(F)C6)nc4c3F)c12 in this test?
Reply: FALSE

Ask: So what was the verdict on CC(=O)OC12COC1CC(O)C1(C)C(=O)C(O)C3=C(C)C(OC(=O)C(O)C(NC(=O)OC(C)(C)C)c4ccccc4)CC(O)(C(OC(=O)c4ccccc4)C21)C3(C)C (stereo not given) + C=CC(=O)N1CCN(c2nc(OCC3CCCN3C)nc3c(F)c(-c4nc(N)cc(C)c4C(F)(F)F)c(Cl)cc23)C(C)C1 in this test?
Reply: FALSE

Ask: Check the results log: what was the call for CC(Nc1ccc2c(c1)OCCn1cc(N3C(=O)OCC3C(F)F)nc1-2)C(N)=O (stereo not given) + C=CC(=O)N1CCN(c2nc(OCC3CCCN3C)nc3c(F)c(-c4nc(N)cc(C)c4C(F)(F)F)c(Cl)cc23)C(C)C1 ?
Reply: FALSE

Ask: In this assay, the call recorded for Cc1nc(N2CCC3(CC2)COC(C)C3N)c(CO)nc1Sc1ccnc(N)c1Cl (stereo not given) + C#Cc1c(F)ccc2cc(O)cc(-c3ncc4c(N5CC6CCC(C5)N6)nc(OCC56CCCN5CC(F)C6)nc4c3F)c12 was what?
Reply: TRUE

Ask: Lab log entry: CCC(CC)c1cc(NC2CCC(N)C2)n2nccc2n1 (stereo not given) + C#Cc1c(F)ccc2cc(O)cc(-c3ncc4c(N5CC6CCC(C5)N6)nc(OCC56CCCN5CC(F)C6)nc4c3F)c12 — outcome as called in the assay?
Reply: TRUE

* * *

System: LG0703-F948-PDC complex spheroid viability
Experiment: Anticancer human tumor LG0703-F948-PDC cell line growth inhibition [RAS];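 note: spheroids exposed to agents for 7 days; 100% = DMSO vehicle wells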
Test settings: second compound 0.316 µM; first compound 0.00316 µM; active compounds read low
Give viability, T/C for every item shown.
Numeric only. Scale: %

Ask: Entry under review: O=C(c1ccc(F)c(F)c1Nc1ccc(I)cc1F)N1CC(O)([C@@H]2CCCCN2)C1 + C=CC(=O)N1CCN(c2nc(OCC3CCCN3C)nc3c(F)c(-c4nc(N)cc(C)c4C(F)(F)F)c(Cl)cc23)C(C)C1 . Reported viability, T/C?
Reply: 90.8

Ask: What value of viability, T/C has been recorded for this entry: C=CC(=O)Nc1cc(Nc2nccc(-c3cn(C)c4ccccc34)n2)c(OC)cc1N(C)CCN(C)C + C#Cc1c(F)ccc2cc(O)cc(-c3ncc4c(N5CC6CCC(C5)N6)nc(OCC56CCCN5CC(F)C6)nc4c3F)c12
Reply: 69.2

Ask: Reported viability, T/C for C=CC(=O)N1CCN(c2nc(OCC3CCCN3C)nc3c(F)c(-c4nc(N)cc(C)c4C(F)(F)F)c(Cl)cc23)C(C)C1 (stereo not drawn) + C#Cc1c(F)ccc2cc(O)cc(-c3ncc4c(N5CC6CCC(C5)N6)nc(OCC56CCCN5CC(F)C6)nc4c3F)c12 : what is it?
Reply: 89.5
